Dear all, this message contains pIC50 results, target or system Epidermal growth factor receptor (Homo sapiens, UniProt P00533).
pIC50: −log10 of the molar value.

>  <structure-notation>
COc1cc(-c2ccc3c(c2)NC(=O)/C3=C\c2ccc[nH]2)ccc1O

>  <pIC50>
< 4.30

$$$$

Qu. Need pIC50 of COc1cc(-c2ccc3c(c2)NC(=O)/C3=C\c2ncc[nH]2)ccc1O , thanks.
Ans. < 4.30

====

target-or-system: Serine/threonine-protein kinase Sgk1 (Homo sapiens, UniProt O00141)
Sequence (O00141 whole entry): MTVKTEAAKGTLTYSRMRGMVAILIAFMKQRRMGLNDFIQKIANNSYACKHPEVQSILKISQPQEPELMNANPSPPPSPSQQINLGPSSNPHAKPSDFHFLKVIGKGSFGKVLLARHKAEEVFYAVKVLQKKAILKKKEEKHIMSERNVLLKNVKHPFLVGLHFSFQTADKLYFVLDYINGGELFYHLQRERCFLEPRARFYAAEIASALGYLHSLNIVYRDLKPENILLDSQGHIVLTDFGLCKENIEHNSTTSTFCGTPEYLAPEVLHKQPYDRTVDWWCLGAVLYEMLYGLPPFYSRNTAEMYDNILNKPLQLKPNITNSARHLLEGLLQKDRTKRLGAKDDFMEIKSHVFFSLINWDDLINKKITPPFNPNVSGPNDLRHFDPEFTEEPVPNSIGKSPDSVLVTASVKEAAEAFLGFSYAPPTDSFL
Reported IC50 values for the following molecules.

>  <structure-notation>
COc1cc(-c2ccc3c(c2)NC(=O)/C3=C\c2ccc[nH]2)ccc1O

>  <reading>
> 50 µM

$$$$
>  <structure-notation>
COc1cc(-c2ccc3c(c2)NC(=O)/C3=C\c2ncc[nH]2)ccc1O

>  <reading>
1.5 µM

$$$$

Qu. Would you mind telling me what IC50 value was observed for COc1cc(-c2ccc3c(c2)NC(=O)/C3=C\c2c[nH]c3ncccc23)ccc1O ?
Ans. > 50 µM
